From: the supplement of paper PMC9170038

Task for the reader: assign each of the following sequences its reported apparent KD of MS2 coat protein.
system: MS2 coat protein; assay: apparent KD of MS2 coat protein; designed switch direction (-1 OFF switch, 1 ON switch): -1; higher = weaker reporter binding; conditions: input ligand: microRNA oligo, concentration not stated
Numbers only, in nM.

| SEQUENCE CHAIN | PROPERTY LABEL | REPORTED MEASUREMENT |
| --- | --- | --- |
| UAUAUAUAGUAAGGAUAUGUAUAUAUUCUAUAAACAGAAGGUACUGACAUGAGGAUCACCCAUGUUUUAGUGUGGGCAUGUAGA [JMF's solution 62] (Eterna round: R96, puzzle: Exclusion NG 1) | apparent KD of MS2 coat protein | 27.4 |

Please look at the following sequence next.
Ask | Look up and report measured apparent KD of MS2 coat protein for this entry: GUCCGGCGUGUAGGAUAUGGUUCCGUUUCGGUUCCAGAAGGACAUGAGGAUCACCCAUGUGCCUGUCGUCGGUCGUCACCGGGC [salish99_ExNG1_r04_220] (Eterna round: R96, puzzle: Exclusion NG 1)
Reply | 10.3
